Recorded values, source paper PMC12416549.

For each record, write down the corresponding apparent Kd (screen).
Biological target: T1, TNFR1 (Homo sapiens, UniProt P19438)
T1 chain: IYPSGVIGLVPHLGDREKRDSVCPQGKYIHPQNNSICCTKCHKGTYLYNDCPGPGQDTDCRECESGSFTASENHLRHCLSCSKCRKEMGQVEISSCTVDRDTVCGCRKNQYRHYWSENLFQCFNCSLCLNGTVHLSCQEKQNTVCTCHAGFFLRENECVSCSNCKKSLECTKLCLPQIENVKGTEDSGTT
Assay: yeast display SC50
Numeric answer only, unit nM assumed.

Answer with reported apparent Kd (screen) of L94H (designed binder) SMEEEVEKAAKEYEKKKKEAIEKHLEKLKAKDKEAAERFLKELEEAAKEYAKDEAKTMSEEEAKRRAKKYKEKVLLSELSEEEQKEIKEAEEKHVRTILKYVEEAAK 0.446

Tell us which apparent Kd (screen) value is on record for E89V (designed binder) SMEEEVEKAAKEYEKKKKEAIEKHLEKLKAKDKEAAERFLKELEEAAKEYAKDEAKTMSEEEAKRRAKKYKEKVLLSELSEEEQKEIKVAEEKLVRTILKYVEEAAK 2.73

Provide apparent Kd (screen) value for the following binder: A9S (designed binder) SMEEEVEKSAKEYEKKKKEAIEKHLEKLKAKDKEAAERFLKELEEAAKEYAKDEAKTMSEEEAKRRAKKYKEKVLLSELSEEEQKEIKEAEEKLVRTILKYVEEAAK 0.49

For A90D (designed binder) SMEEEVEKAAKEYEKKKKEAIEKHLEKLKAKDKEAAERFLKELEEAAKEYAKDEAKTMSEEEAKRRAKKYKEKVLLSELSEEEQKEIKEDEEKLVRTILKYVEEAAK , write its apparent Kd (screen). 0.446
